Biological target: Claudin18.2-His protein (human)
Assay: indirect ELISA on coated Claudin18.2-His
Property: EC50; scope: individual binders
Please reply with the bare figure in ng/mL and do not write the unit itself.

266B11F7 (antibody, V domains shown) VH: QVQMKESGPGLVAPSQSLSITCTVSGFSLTTYGVTWVRQPPGKGLEWLGVIWGDGSTNYHSALTSRLRISKDKSKSQVFLKLSSLQTDDTATYYCAKPGRGNALDYWGQGTSVTVSS VL: DIVMTQSPSSLTVTAGEKVTMRCKSSQSLLNSGNQKNYLTWYQQKPGQPPKLLVYWASTRESGVPDRFTGSGSGTDFTLTVSSVQAEDLAVYYCQNDYIFPLTFGAGTKLELK = 16.8

Recorded EC50 for 35E8D2 (antibody, V domains shown) VH: QIQLVQSGPELKKPGETVRISCKASGYTFTTAGMQWVQKMPGKGLKWIGWINTHSRVPNFAEDFKGRFAFSLETSARIAYLQISNIKNEDMATYFCARLGKGNTMDFWGQGTSVTVSS VL: DIVMTQSPSSLTVTVGEKVTMSCKSSQSLLNSGNQKNYLTWYQQKPGQPPKLLIYWASTRESGVPDRFTGSGSETDFTLTISSLQAEDLAVYYCQNSYSFPLTFGGGTNLEIK , please?
3.19

# repeat for 257B1G9 (antibody, V domains shown) VH: QAYLQQSGAELVRSGASVKMSCKASGYTFTSHNMHWVKQTPGQGLEWIGYIYPGNGGTNYNQKFKGKATLTADTSSSTAYMQISSLTSEDSAVYFCTRDYYGNSFAYWGQGTLVTVSA VL: DIVMTQSPSSLTERAGERVSMSCKSSQSLFNSGNQKNYLTWYQQKPGQPPKLLIYWASTRESGVPDRFTGSGSGTDFTLTISSVQAEDLAVYYCQNDYRYPFTFGAGTKLELK
7.93

# repeat for 410H6H3 (antibody, V domains shown) VH: DVLLVESGGGLVQPGGSRKLSCAASGFTFSSSGMHWVRQAPEKGLEWVAYISSGSNTIYYADTLKGRFTISRDNPKNTLFLQMTSLRSEDTAMYYCARIYYGNSFVYWGQGTLVTVSA VL: DIVMTQSPSSLTVTAGEKVIMSCKSSQSLLNSGNQKNYLTWYQQKPGQPPKMLIYWASTRESGVPDRFRGSGSGTDFTLTISSVQAEDLAVYYCQNNYYYPLTFGTGTKLALK
2.93

# repeat for 241H10A1 (antibody, V domains shown) VH: QVQLQQSGAELVKPGASVKLSCKASGYTFTSFGINWLRQRPEQGLEWIGWIFPGDGNSKYNENFKGKATLTTDKSSSTAYMQVTRLTSEDSAVYFCARFYYGNSFANWGQGTLVTVSA VL: DIVMTQSPSSLTVTAGEKVTMSCKSSQSLLNSGNQKNYLTWYQQKPGQPPKLLIYWAATRESGVPDRFTGSGSGTDFTLTISSVQAEDLAVYYCQNDYFYPFTFGGGTKLELK
22.1
